Target: acetylcholine receptor (Homo sapiens, UniProt P02708)
Sequence (P02708 21-457): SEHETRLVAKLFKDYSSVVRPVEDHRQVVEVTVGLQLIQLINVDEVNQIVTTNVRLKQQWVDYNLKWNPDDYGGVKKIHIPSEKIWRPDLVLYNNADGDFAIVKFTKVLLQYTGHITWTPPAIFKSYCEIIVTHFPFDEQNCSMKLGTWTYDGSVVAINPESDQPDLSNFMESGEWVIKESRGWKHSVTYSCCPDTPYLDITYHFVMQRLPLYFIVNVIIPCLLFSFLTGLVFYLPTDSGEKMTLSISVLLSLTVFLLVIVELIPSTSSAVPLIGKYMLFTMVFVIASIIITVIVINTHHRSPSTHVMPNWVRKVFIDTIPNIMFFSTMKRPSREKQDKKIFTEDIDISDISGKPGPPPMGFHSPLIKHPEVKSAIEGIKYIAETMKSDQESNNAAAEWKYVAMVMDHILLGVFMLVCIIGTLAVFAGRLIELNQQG
Test: SPR binding affinity (RU) of optimized 5mer/6mer/7mer peptides, Examples 6-7
Conditions: SPR, Resonance Units; peptides tested at 10 μM; 6mer-1 Bottom sequence (Table 11)
EXPERIMENTAL_ENDPOINT: Binding affinity
Could you write the number and then its unit?

Below, 6 substances whose answers are already recorded.
substance="6mer-1-652 (RRPEVK)" assay_system="acetylcholine receptor (Homo sapiens, UniProt P02708)" test_value="26 Ru"
substance="6mer-1-759 (RKMTWR)" assay_system="acetylcholine receptor (Homo sapiens, UniProt P02708)" test_value="23 Ru"
substance="6mer-1-657 (RRCTVR)" assay_system="acetylcholine receptor (Homo sapiens, UniProt P02708)" test_value="17 Ru"
substance="6mer-1-731 (RRIKAR)" assay_system="acetylcholine receptor (Homo sapiens, UniProt P02708)" test_value="18 Ru"
substance="6mer-1-680 (KKDPPR)" assay_system="acetylcholine receptor (Homo sapiens, UniProt P02708)" test_value="27 Ru"
substance="6mer-1-645 (RRTTIR)" assay_system="acetylcholine receptor (Homo sapiens, UniProt P02708)" test_value="33 Ru"

Give me Binding affinity for each of these substances, listed below.
1. 6mer-1-703 (KKFHPR)
2. 6mer-1-751 (RRTNFK)
3. 6mer-1-603 (KRPHFK)
4. 6mer-1-620 (RRKTAK)
5. 6mer-1-658 (RKKEMK)

1: 18 Ru; 2: 27 Ru; 3: 13 Ru; 4: 11 Ru; 5: 20 Ru
